- SUBJECT_OF_TEST: human muscarinic M4 receptor (Homo sapiens)
- Construct: expressed in transfected cells
- Sequence (P08173 whole entry): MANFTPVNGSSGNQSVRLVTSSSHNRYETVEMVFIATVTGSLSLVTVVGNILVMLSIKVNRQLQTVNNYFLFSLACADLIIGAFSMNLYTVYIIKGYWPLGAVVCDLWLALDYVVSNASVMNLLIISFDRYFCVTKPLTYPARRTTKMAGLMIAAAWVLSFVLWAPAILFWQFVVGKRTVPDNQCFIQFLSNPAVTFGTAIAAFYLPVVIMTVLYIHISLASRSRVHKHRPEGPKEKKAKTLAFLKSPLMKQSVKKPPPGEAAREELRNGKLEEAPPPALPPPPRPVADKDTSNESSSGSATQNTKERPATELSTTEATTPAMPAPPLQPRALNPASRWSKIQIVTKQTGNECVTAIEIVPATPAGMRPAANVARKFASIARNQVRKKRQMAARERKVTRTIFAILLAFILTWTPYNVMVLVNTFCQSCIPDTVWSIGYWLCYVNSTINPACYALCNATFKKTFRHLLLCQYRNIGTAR
- EXPERIMENT_NOTES: Alphascreen Surefire phospho-ERK1/2 functional assay, M4
- Assay type: cell-based
- TEST_SETTINGS: CHO, read-out: % Emax cf. ACh, M4, CHO cells stably expressing human M4; relative to ACh
QUANTITY_NAME: Emax (%)

A = CCCn1nccc1C1CCN(C2CC3(CCN(C(=O)OC)C3)C2)CC1 (single isomer, unassigned) [1-48 Isomer 2]
B = CCOC(=O)N1CCC2(CC(N3CCC(C4c5ccccc5CN4C(=O)NC)CC3)C2)C1 (single isomer, unassigned) [2-76 Isomer 1]
C = CCOC(=O)N1CCC2(CC(N3CCC(c4nnn[nH]4)CC3)C2)C1 (single isomer, unassigned) [1-31 Isomer 2]
From the records above, write out the order of decreasing Emax. Respond with the label ranking, as requested.
B, A, C

====

- SUBJECT_OF_TEST: human muscarinic M3 receptor (Homo sapiens, UniProt P20309)
- Sequence (P20309 whole entry): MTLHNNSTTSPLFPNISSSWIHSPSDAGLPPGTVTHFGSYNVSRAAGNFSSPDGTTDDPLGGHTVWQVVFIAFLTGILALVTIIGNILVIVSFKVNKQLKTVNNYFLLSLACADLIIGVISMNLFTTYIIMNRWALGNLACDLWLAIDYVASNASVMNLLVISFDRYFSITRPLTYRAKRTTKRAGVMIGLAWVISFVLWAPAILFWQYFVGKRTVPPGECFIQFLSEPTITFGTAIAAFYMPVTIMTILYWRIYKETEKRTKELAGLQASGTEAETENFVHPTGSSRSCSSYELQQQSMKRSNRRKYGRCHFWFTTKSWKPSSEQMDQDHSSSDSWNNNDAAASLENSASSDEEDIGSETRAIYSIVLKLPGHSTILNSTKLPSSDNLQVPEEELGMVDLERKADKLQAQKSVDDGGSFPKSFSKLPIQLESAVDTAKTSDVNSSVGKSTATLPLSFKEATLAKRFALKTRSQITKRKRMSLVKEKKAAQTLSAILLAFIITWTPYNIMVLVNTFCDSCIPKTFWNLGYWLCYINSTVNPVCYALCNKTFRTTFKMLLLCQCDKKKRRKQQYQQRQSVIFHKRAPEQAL
- EXPERIMENT_NOTES: Alphascreen Surefire phospho-ERK1/2 functional assay, M3
- TEST_SETTINGS: pEC50 M3, CHO cells stably expressing human M3; phospho-ERK1/2; * = variable results
pEC50: −log10 of the molar value.
The molecules listed here are annotated with their pEC50.

Reference set, count: 2
CCOC(=O)N1CCC2(CC(N3CCC([C@@H]4CCCN4C(=O)CCc4ccccn4)CC3)C2)C1 (single isomer, unassigned) [2-62 Isomer 2] = < 4.70
CCOC(=O)N1CCC2(CC(N3CCC([C@@H]4C[C@H](F)CN4C(=O)CC)CC3)C2)C1 (single isomer, unassigned) [2-59 Isomer 2] = < 4.70

Continue with the next molecule.
Dear colleague, I am looking for the recorded pEC50 of the following molecule: CCOC(=O)N1CCC2(CC(N3CCC([C@@H]4CCCN4C(=O)N4CCOCC4)CC3)C2)C1 (single isomer, unassigned) [2-28 Isomer 2]
< 4.70

====

- SUBJECT_OF_TEST: human muscarinic M1 receptor (Homo sapiens, UniProt P11229)
- Sequence (P11229 1-460): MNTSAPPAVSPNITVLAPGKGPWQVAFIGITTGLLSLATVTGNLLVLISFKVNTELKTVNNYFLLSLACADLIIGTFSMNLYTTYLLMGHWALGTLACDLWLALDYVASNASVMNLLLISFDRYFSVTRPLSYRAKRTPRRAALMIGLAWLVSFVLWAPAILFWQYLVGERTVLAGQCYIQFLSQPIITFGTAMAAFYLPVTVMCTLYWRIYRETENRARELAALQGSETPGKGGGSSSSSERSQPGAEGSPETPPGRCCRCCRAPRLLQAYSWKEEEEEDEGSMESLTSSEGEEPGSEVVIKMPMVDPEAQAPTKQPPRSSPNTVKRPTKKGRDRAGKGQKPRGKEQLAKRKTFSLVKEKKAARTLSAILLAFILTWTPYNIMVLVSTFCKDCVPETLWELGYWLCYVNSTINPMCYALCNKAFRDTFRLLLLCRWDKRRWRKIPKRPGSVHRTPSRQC
- EXPERIMENT_NOTES: Alphascreen Surefire phospho-ERK1/2 functional assay, M1
- Format: cell-based
- TEST_SETTINGS: CHO, read-out: % Emax cf. ACh, M1, CHO cells stably expressing human M1; relative to ACh
QUANTITY_NAME: Emax (%)

A = CCOC(=O)N1CCC2(CC(N3CCC(N4CC(F)(F)C[C@H]4C(=O)N(C)C)CC3)C2)C1 (single isomer, unassigned) [2-94 Isomer 2]
B = CCOC(=O)N1CCC2(CC(N3CCC([C@@H]4CCCN4C(=O)N4CCCC4)CC3)C2)C1 (single isomer, unassigned) [2-32 Isomer 2]
Of A and B , which one carries the higher reported Emax? Select an item and report its label.
B
